# System: MCF7
# PROTOCOL SUMMARY: Cell viability assay (Cell Titer-Glo), MCF7
# Type: cell-based
# CONDITION PARAMETERS: Homo sapiens, compound (I-1) alone, 72 hours, read-out: average EC50, cell viability
OBSERVABLE: EC50 (nM)
Give the quantity in nM, number only.

For the compound Cc1noc(C)c1-c1cc(C(O)(c2ccccn2)c2ccccn2)c2nc(C3CC3)[nH]c2c1 , give its measured EC50 value.
61.3

---

# System: T47D
# PROTOCOL SUMMARY: Cell viability assay (Cell Titer-Glo), T47D
# Assay type: cell-based
# CONDITION PARAMETERS: Homo sapiens, in the presence of fulvestrant, 96 hours, read-out: EC50, cell viability
OBSERVABLE: EC50 (nM)
Give the quantity in nM, number only.

For the compound Cc1noc(C)c1-c1cc(C(O)(c2ccccn2)c2ccccn2)c2nc(C3CC3)[nH]c2c1 , give its measured EC50 value.
64
